- Tested on: NO release in LPS stimulated RAW 264.7 cells
- measurementNotes: NO inhibitory assay
- Type: cell-based
- assayContext: Mus musculus, RAW264.7, 24 h, read-out: IC50 for NO inhibition RAW 264.7
measureName: IC50 (µM)

Guide cases for IC50, answers given:
[[record]]
itemsmiles = "CC(/C=C/C=C(\\C)C(=O)O[C@@H]1O[C@H](CO[C@@H]2O[C@H](CO)[C@@H](O)[C@H](O)[C@H]2O)[C@@H](O)[C@H](O)[C@H]1O)=C\\C=C\\C=C(C)\\C=C\\C=C(/C)C(=O)O[C@@H]1O[C@H](CO[C@@H]2O[C@H](CO)[C@@H](O)[C@H](O)[C@H]2O)[C@@H](O)[C@H](O)[C@H]1O"
testsystem = "NO release in LPS stimulated RAW 264.7 cells"
measurename = "IC50"
unit = "µM"
obsvalue = 27.2

[[record]]
itemsmiles = "CC(/C=C/C=C(\\C)C(=O)O)=C\\C=C\\C=C(C)\\C=C\\C=C(/C)C(=O)O"
testsystem = "NO release in LPS stimulated RAW 264.7 cells"
measurename = "IC50"
unit = "µM"
obsvalue = 23.4

[[record]]
itemsmiles = "O=C(O)/C=C/c1ccc(O)c(O)c1"
testsystem = "NO release in LPS stimulated RAW 264.7 cells"
measurename = "IC50"
unit = "µM"
obsvalue = 19.2


I = N[C@@H](Cn1ccc(=O)c(O)c1)C(=O)O
II = CC/C=C\C[C@H]1C(=O)CC[C@@H]1CC(=O)O
Q. Given I and II , report the one with the higher recorded IC50. API: response body contains the label of the selected item.
A. II
(II: 29.4 µM, I: 19.2 µM)
